# measurementProtocol: Placebo controlled, dose escalation pharmacokinetic study of oral (Z)-Endoxifen capsules (serum endoxifen; incl. accumulation ratios and dose linearity)
# Assay type: in vivo, human
# runParameters: female, human, serum, po, 4 mg, Day 21; dose 4 mg oral once daily; Median, N 6; read-out: volume of distribution (Vd/F)
readoutKind: Vd/F (L)
The figure you give is taken to be in L; do not add the unit.

Dear colleague, I am looking for the recorded Vd/F of the following compound: CC/C(=C(\c1ccc(O)cc1)c1ccc(OCCNC)cc1)c1ccccc1 [(Z)-Endoxifen]
106

###

# measurementProtocol: Placebo controlled, dose escalation pharmacokinetic study of oral (Z)-Endoxifen capsules (serum endoxifen; incl. accumulation ratios and dose linearity)
# Format: in vivo, human
# runParameters: female, human, serum, po, 1 mg/day, Day 21; 1 mg/day oral (n = 5); read-out: Median Tmax
readoutKind: Tmax (h)
The figure you give is taken to be in h; do not add the unit.

Dear colleague, I am looking for the recorded Tmax of the following compound: CC/C(=C(\c1ccc(O)cc1)c1ccc(OCCNC)cc1)c1ccccc1 [(Z)-Endoxifen]
8

###

# measurementProtocol: Placebo controlled, dose escalation pharmacokinetic study of oral (Z)-Endoxifen capsules (serum endoxifen; incl. accumulation ratios and dose linearity)
# Assay type: in vivo, human
# runParameters: female, human, serum, oral, 1 mg; Day 1 hr 10; read-out: Serum concentration, Mean
readoutKind: concentration at 10 h (nM)
The figure you give is taken to be in nM; do not add the unit.

Dear colleague, I am looking for the recorded concentration at 10 h of the following compound: CC/C(=C(\c1ccc(O)cc1)c1ccc(OCCNC)cc1)c1ccccc1 [(Z)-Endoxifen]
22.5

###

# measurementProtocol: Placebo controlled, dose escalation pharmacokinetic study of oral (Z)-Endoxifen capsules (serum endoxifen; incl. accumulation ratios and dose linearity)
# Assay type: in vivo, human
# runParameters: female, human, serum, po, 2 mg, Day 21; dose 2 mg oral once daily; Median, N 6; read-out: volume of distribution (Vd/F)
readoutKind: Vd/F (L)
The figure you give is taken to be in L; do not add the unit.

Dear colleague, I am looking for the recorded Vd/F of the following compound: CC/C(=C(\c1ccc(O)cc1)c1ccc(OCCNC)cc1)c1ccccc1 [(Z)-Endoxifen]
132

###

# measurementProtocol: Placebo controlled, dose escalation pharmacokinetic study of oral (Z)-Endoxifen capsules (serum endoxifen; incl. accumulation ratios and dose linearity)
# Assay type: in vivo, human
# runParameters: female, human, serum, po, 4 mg, Day 1; dose 4 mg oral; GeoMean, N 6; read-out: AUC to last time point
readoutKind: AUC (ng·h/mL)
The figure you give is taken to be in ng·h/mL; do not add the unit.

Dear colleague, I am looking for the recorded AUC of the following compound: CC/C(=C(\c1ccc(O)cc1)c1ccc(OCCNC)cc1)c1ccccc1 [(Z)-Endoxifen]
1420

###

# measurementProtocol: Placebo controlled, dose escalation pharmacokinetic study of oral (Z)-Endoxifen capsules (serum endoxifen; incl. accumulation ratios and dose linearity)
# Assay type: in vivo, human
# runParameters: female, human, serum, po, 2 mg/day, Day 21; 2 mg/day oral (n = 6); read-out: Median Tmax
readoutKind: Tmax (h)
The figure you give is taken to be in h; do not add the unit.

Dear colleague, I am looking for the recorded Tmax of the following compound: CC/C(=C(\c1ccc(O)cc1)c1ccc(OCCNC)cc1)c1ccccc1 [(Z)-Endoxifen]
4
